Target: C-CBL (46-435) (Homo sapiens)
Construct: N-terminal biotinylated WT CBL-B (36-427) and C-CBL (46-435) were captured on a streptavidin (SA) coated sensor chip
Sequence (P22681 46-435): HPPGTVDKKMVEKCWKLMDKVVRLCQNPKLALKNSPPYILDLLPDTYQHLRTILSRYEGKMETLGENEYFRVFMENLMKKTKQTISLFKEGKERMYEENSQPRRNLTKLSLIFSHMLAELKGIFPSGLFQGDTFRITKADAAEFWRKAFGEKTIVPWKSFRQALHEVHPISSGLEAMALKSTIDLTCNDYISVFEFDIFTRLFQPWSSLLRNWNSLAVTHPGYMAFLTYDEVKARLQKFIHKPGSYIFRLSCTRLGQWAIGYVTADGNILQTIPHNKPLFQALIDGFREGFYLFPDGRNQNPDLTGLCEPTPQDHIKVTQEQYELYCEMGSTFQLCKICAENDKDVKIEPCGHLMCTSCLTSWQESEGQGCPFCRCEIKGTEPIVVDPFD
Test: Surface Plasmon Resonance (SPR) assay, binding affinity and kinetics, C-CBL
Conditions: SPR at 10° C., biotinylated C-CBL (46-435) on streptavidin chip; geometric mean; read-out: C-CBL SPR Kd (nM) GMean
resultType: Kd
Answer format: value, then unit.

>>> result("CC(N)c1nc(C(F)(F)F)cc2c(-c3cccc(C4(Cc5nncn5C)COC4)c3)n[nH]c12 (single isomer, unassigned) [Example K17]")
"256 nM"
>>> result("C[C@H](Cc1nncn1C)c1cccc(-c2n[nH]c3cnc(C(F)(F)F)cc23)c1 [Example N1]")
"275 nM"
>>> result("Cn1cnnc1CC1(c2cccc(-c3n[nH]c4c(CN5CCC5)nc(C(F)(F)F)cc34)c2)COC1 [Example C61]")
"99.8 nM"
>>> result("C[C@H]1CN([C@@H](C)c2nc(C(F)(F)F)cc3c(-c4cccc(C5(Cc6nncn6C)COC5)c4)n[nH]c23)CCO1 (single isomer, unassigned) [Example D11]")
"47.9 nM"
>>> result("C[C@H](c1nc(C(F)(F)F)cc2c(-c3cccc(C4(Cc5nncn5C)COC4)c3)n[nH]c12)N(C)C (single isomer, unassigned) [Example D40]")
"88.5 nM"

Here is the next item to consider.
Request: Kd, test system C-CBL (46-435) (Homo sapiens), entry Cn1cnnc1[C@@H](c1cccc(-c2n[nH]c3c(CN[C@@H]4CCC[C@H]4O)nc(C(F)(F)F)cc23)c1)C1CCC1 [Example C121]
113 nM

###

Target: CBL-B (Homo sapiens)
Construct: endogenous in cells; host or cells: Jurkat HiBit-IL2 reporter cells, C-CBL knocked out by CRISPR
Sequence (Q13191 whole entry): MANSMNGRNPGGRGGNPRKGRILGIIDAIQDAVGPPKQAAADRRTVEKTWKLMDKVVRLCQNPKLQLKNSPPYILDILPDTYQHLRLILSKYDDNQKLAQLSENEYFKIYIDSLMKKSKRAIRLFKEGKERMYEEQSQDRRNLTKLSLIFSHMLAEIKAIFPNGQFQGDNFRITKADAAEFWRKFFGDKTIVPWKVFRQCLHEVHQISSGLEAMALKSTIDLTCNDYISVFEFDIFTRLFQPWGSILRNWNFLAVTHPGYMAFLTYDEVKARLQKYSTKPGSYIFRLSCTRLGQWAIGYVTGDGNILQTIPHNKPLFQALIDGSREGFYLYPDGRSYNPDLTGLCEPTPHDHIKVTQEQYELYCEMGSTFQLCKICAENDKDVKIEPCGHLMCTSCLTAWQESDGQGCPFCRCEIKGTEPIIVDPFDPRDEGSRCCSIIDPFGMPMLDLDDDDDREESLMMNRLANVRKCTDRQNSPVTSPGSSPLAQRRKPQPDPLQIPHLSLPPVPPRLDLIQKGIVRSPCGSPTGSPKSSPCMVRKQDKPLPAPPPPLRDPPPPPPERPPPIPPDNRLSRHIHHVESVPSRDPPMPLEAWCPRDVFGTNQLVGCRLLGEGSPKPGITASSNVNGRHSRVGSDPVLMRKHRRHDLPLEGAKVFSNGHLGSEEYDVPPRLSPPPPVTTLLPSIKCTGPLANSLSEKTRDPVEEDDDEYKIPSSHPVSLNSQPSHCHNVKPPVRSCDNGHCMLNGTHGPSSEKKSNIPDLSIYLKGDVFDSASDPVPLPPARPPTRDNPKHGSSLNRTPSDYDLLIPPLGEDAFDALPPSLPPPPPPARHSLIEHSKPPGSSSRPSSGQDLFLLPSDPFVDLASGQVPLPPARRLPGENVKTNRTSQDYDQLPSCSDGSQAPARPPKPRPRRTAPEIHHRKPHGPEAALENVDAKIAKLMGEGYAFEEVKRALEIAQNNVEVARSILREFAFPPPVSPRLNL
Assay: Jurkat HiBit-IL2 assay (c-CBL KO), reporter cell line expressing CBL-B only
Assay type: cell-based
Conditions: C-CBL KO (expressing CBL-B only), geometric mean, Table 16b (further repetition), read-out: C-CBL KO EC50 (nM) GMean
resultType: log10(EC50) (log10 of the value in nM)
Scale type: logarithmic (base 10). Underlying EC50 unit: nM.

Example entries begin here.
>>> recordednumber("CC(c1nc(C(F)(F)F)cc2c(-c3cccc(C4(Cc5nncn5C)COC4)c3)n[nH]c12)N1CCC[C@H](C)C1 (single isomer, unassigned)")
1.18
>>> recordednumber("C[C@H](c1nc(C(F)(F)F)cc2c(-c3cccc([C@H](c4nncn4C)C4CCC4)c3)n[nH]c12)N1CC[C@@H](O)C1 (single isomer, unassigned)")
2.19

If you can, please state the reported log10(EC50) value of CC(NC(=O)CO)c1nc(C(F)(F)F)cc2c(-c3cccc([C@H](c4nncn4C)C4CCC4)c3)n[nH]c12 (single isomer, unassigned) .
1.46

If you can, please state the reported log10(EC50) value of C[C@H](NC1CC(F)(F)C1)c1nc(C(F)(F)F)cc2c(-c3cccc([C@H](c4nncn4C)C4CCC4)c3)n[nH]c12 (single isomer, unassigned) .
1.86

If you can, please state the reported log10(EC50) value of C[C@@H](c1nc(C(F)(F)F)cc2c(-c3cccc([C@H](c4nncn4C)C4CCC4)c3)n[nH]c12)N1CC[C@@H](O)C1 (single isomer, unassigned) .
2.47

If you can, please state the reported log10(EC50) value of C[C@H](NC1(CO)CCC1)c1nc(C(F)(F)F)cc2c(-c3cccc([C@H](c4nncn4C)C4CCC4)c3)n[nH]c12 (single isomer, unassigned) .
2.01

If you can, please state the reported log10(EC50) value of C[C@H](NC1CC[C@H]1O)c1nc(C(F)(F)F)cc2c(-c3cccc([C@H](c4nncn4C)C4CCC4)c3)n[nH]c12 (single isomer, unassigned) .
1.00

If you can, please state the reported log10(EC50) value of CCC(CC)(CO)N[C@H](C)c1nc(C(F)(F)F)cc2c(-c3cccc([C@H](c4nncn4C)C4CCC4)c3)n[nH]c12 (single isomer, unassigned) .
2.29

If you can, please state the reported log10(EC50) value of C[C@@H](NC(C)(C)CO)c1nc(C(F)(F)F)cc2c(-c3cccc([C@H](c4nncn4C)C4CCC4)c3)n[nH]c12 (single isomer, unassigned) .
1.90

If you can, please state the reported log10(EC50) value of CC(NCCO)c1nc(C(F)(F)F)cc2c(-c3cccc([C@H](c4nncn4C)C4CCC4)c3)n[nH]c12 (single isomer, unassigned) [Example C41] .
2.19

If you can, please state the reported log10(EC50) value of C[C@H](N[C@H]1CCC(F)(F)C1)c1nc(C(F)(F)F)cc2c(-c3cccc(C4(Cc5nncn5C)COC4)c3)n[nH]c12 (single isomer, unassigned) .
0.90

If you can, please state the reported log10(EC50) value of CC(NC1CCC1)c1nc(C2CC2)cc2c(-c3cccc(C4(Cc5nncn5C)COC4)c3)n[nH]c12 (single isomer, unassigned) [Example H4] .
1.04

If you can, please state the reported log10(EC50) value of C[C@H](N[C@H]1CC[C@@H]1O)c1nc(C(F)(F)F)cc2c(-c3cccc([C@H](c4nncn4C)C4CCC4)c3)n[nH]c12 (single isomer, unassigned) .
2.03

If you can, please state the reported log10(EC50) value of C[C@@H](N[C@@H]1CC[C@H]1O)c1nc(C(F)(F)F)cc2c(-c3cccc([C@H](c4nncn4C)C4CCC4)c3)n[nH]c12 (single isomer, unassigned) .
1.76

If you can, please state the reported log10(EC50) value of C[C@@H](c1nc(C(F)(F)F)cc2c(-c3cccc([C@H](c4nncn4C)C4CCC4)c3)n[nH]c12)N1CC[C@H](O)C1 (single isomer, unassigned) [Example D71] .
1.89

If you can, please state the reported log10(EC50) value of C[C@@H](N[C@H]1CCC[C@@H]1O)c1nc(C(F)(F)F)cc2c(-c3cccc([C@H](c4nncn4C)C4CCC4)c3)n[nH]c12 (single isomer, unassigned) .
1.79

// provenance: patent US20260125375A1
